Sourced from patent US7879838B2

Target Under Test: Human CXCR3 (N-delta 4) (Homo sapiens, UniProt P49682)
Construct: CD8 leader (N); Flag tag; expressed in transfected cells; membranes prepared
Sequence (P49682 5-368 limits assumed): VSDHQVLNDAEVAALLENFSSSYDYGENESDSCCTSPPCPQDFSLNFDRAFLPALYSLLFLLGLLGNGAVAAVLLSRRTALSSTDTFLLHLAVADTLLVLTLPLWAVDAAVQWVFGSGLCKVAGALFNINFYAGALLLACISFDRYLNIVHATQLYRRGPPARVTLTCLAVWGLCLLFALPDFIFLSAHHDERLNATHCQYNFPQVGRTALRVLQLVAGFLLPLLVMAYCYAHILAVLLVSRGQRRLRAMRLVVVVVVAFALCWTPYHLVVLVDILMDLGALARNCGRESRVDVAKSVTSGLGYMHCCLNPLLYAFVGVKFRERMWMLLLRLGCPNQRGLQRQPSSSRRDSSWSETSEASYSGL
Test Summary: Human CXCR3 (N-delta 4) scintillation proximity assay (SPA), [125I] IP-10 binding to Ba/F3-hCXCR3 membranes
Settings: IC50 rating; 25 pM [125I] IP-10, membranes of Ba/F3 cells expressing human CXCR3 (N-delta 4)
pIC50: −log10 of the molar value.
Measured Parameter: pIC50

Compound | Measured Parameter | Endpoint Result
CC[C@H]1CN(c2ncc(C(=O)NC(C)C)nc2Cl)CCN1C1CCN(C(=O)c2ccc(Cl)nc2N)CC1 [compound 118] | pIC50 | > 7.60
CC[C@H]1CN(c2nc(NC(=O)N(C)C)c(C(=O)NC3CC3)nc2Cl)CCN1C1CCN(C(=O)c2ccc(Cl)nc2N)CC1 [compound 38] | pIC50 | > 7.60
CC[C@H]1CN(c2ncc(C(N)=O)nc2C)CCN1C1CCN(C(=O)c2ccc(C(F)(F)F)nc2N)CC1 [compound 165] | pIC50 | 7.00 to 7.60
CC[C@H]1CN(c2nc(N)c(C(=O)NN)nc2Cl)CCN1C1CCN(C(=O)c2ccc(Cl)nc2N)CC1 [compound 65] | pIC50 | 7.00 to 7.60
CC[C@H]1CN(c2ncc(C(=O)NC)nc2C)[C@H](C)CN1C1CCN(C(=O)c2ccc(Cl)nc2N)CC1 [compound 163] | pIC50 | > 7.60
CC[C@H]1CN(c2nc(N)c(C(N)=O)nc2Cl)CCN1C1CCN(C(=O)c2ccc(OC)nc2N)CC1 [compound 135] | pIC50 | 7.00 to 7.60

So what's the measured pIC50 for this one? CC[C@H]1CN(c2nc(N)c(C(=O)NC)nc2Cl)CCN1C1CCN(C(=O)c2ccc(OC)nc2N)CC1 [compound 131]
7.00 to 7.60

---

Catalogue of pIC50 readings, one per entry.
Target Under Test: Human CXCR3 (N-delta 4) (Homo sapiens, UniProt P49682)
Construct: CD8 leader (N); Flag tag; expressed in transfected cells; membranes prepared
Test Summary: Human CXCR3 (N-delta 4) scintillation proximity assay (SPA), [125I] IP-10 binding to Ba/F3-hCXCR3 membranes
Settings: IC50 rating; 25 pM [125I] IP-10, membranes of Ba/F3 cells expressing human CXCR3 (N-delta 4)
pIC50: −log10 of the molar value.

Worked cases, answers included:
Entry Smiles | pIC50
CC[C@H]1CN(c2nc(N)c(C(=O)NCCO)nc2Cl)CCN1C1CCN(C(=O)c2ccc(Cl)nc2Cl)CC1 | > 7.60
CC[C@H]1CN(c2nc(N)c(C(=O)NCCO)nc2Cl)CCN1C1CCN(Cc2ccc(C(F)(F)F)nc2)CC1 | 7.00 to 7.60
CC[C@H]1CN(c2nc(N)c(C(=O)Nc3ccon3)nc2Cl)CCN1C1CCN(C(=O)c2ccc(Cl)nc2N)CC1 | > 7.60
CC[C@H]1CN(c2nc(N)c(C(=O)NC3CC3)nc2Cl)CCN1C1CCN(Cc2cnc(-c3ccccc3)nc2C)CC1 | < 7.00
CC[C@H]1CN(c2nc(NCC3CC3)c(C(N)=O)nc2Cl)CCN1C1CCN(C(=O)c2ccc(Cl)nc2N)CC1 | < 7.00
CC[C@H]1CN(c2nc(N)c(C(=O)N[C@@H]3CC[C@@H]3O)nc2Cl)CCN1C1CCN(C(=O)c2ccc(Cl)nc2N)CC1 | > 7.60

Can you share its pIC50? I mean this compound: CC[C@H]1CN(c2nc(N)c(C(=O)NC)nc2Cl)CCN1C1CCN(C(=O)c2cc(Cl)nc(Cl)c2)CC1
< 7.00

---

Target Under Test: Human CXCR3 (N-delta 4) (Homo sapiens, UniProt P49682)
Construct: CD8 leader (N); Flag tag; expressed in transfected cells; membranes prepared
Test Summary: Human CXCR3 (N-delta 4) scintillation proximity assay (SPA), [125I] IP-10 binding to Ba/F3-hCXCR3 membranes
Settings: IC50 rating; 25 pM [125I] IP-10, membranes of Ba/F3 cells expressing human CXCR3 (N-delta 4)
Measured Parameter: IC50

Compound | Measured Parameter | Endpoint Result
CC[C@H]1CN(c2ncc(C(=O)NC(C)C)nc2C(F)(F)F)CCN1C1CCN(C(=O)c2ccc(Cl)nc2N)CC1 | IC50 | < 25 nM
CC[C@H]1CN(c2nc(N)c(C(N)=O)nc2Cl)CCN1C1CCN(C(=O)c2ncc(C)nc2N)CC1 | IC50 | > 100 nM
CC[C@H]1CN(c2ncc(C(=O)NC(C)(C)C)nc2Cl)CCN1C1CCN(C(=O)c2ccc(Cl)nc2N)CC1 | IC50 | < 25 nM
CC[C@H]1CN(c2nc(N)c(C(=O)NC(=N)NC)nc2Cl)CCN1C1CCN(C(=O)c2ccc(Cl)nc2N)CC1 | IC50 | < 25 nM
CC[C@H]1CN(c2nc(N)c(C(=O)NCCS(C)(=O)=O)nc2Cl)CCN1C1CCN(Cc2ccc(Cl)nc2N)CC1 | IC50 | 25 to 100 nM

Which value of IC50 has been reported for CC[C@H]1CN(c2nc(N)c(C(N)=O)nc2Cl)CCN1C1CCN(C(=O)c2ccc(Cl)n3ccnc23)CC1 in the records?
> 100 nM

Entry CC[C@H]1CN(c2nc(N)c(C(=O)NCCC#N)nc2Cl)CCN1C1CCN(C(=O)c2ccc(Cl)nc2N)CC1 : reported IC50 = ?
< 25 nM

Entry CC[C@H]1CN(c2ncc(C(=O)NCCO)nc2Cl)CCN1C1CCN(C(=O)c2ccc(Cl)nc2N)CC1 : reported IC50 = ?
< 25 nM

Value lookup for IC50; key = CC[C@H]1CN(c2nc(N)c(C(=O)NCCN3CCCC3)nc2Cl)CCN1C1CCN(C(=O)c2ccc(Cl)nc2N)CC1
25 to 100 nM

---

Below, each entry is listed alongside its reported pIC50.
Target Under Test: Human CXCR3 (N-delta 4) (Homo sapiens, UniProt P49682)
Construct: CD8 leader (N); Flag tag; expressed in transfected cells; membranes prepared
Test Summary: Human CXCR3 (N-delta 4) scintillation proximity assay (SPA), [125I] IP-10 binding to Ba/F3-hCXCR3 membranes
Settings: IC50 rating; 25 pM [125I] IP-10, membranes of Ba/F3 cells expressing human CXCR3 (N-delta 4)
pIC50: −log10 of the molar value.

Examples with their reported pIC50 follow.
Compound | Target Under Test | pIC50
CC[C@H]1CN(c2nc(N)c(C(N)=O)nc2Cl)CCN1C1CCN(C(=O)c2ccc(-n3cccc3)nc2)CC1 | Human CXCR3 (N-delta 4) (Homo sapiens, UniProt P49682) | < 7.00
CC[C@H]1CN(c2nc(N)c(C(=O)NCC(C)(C)O)nc2Cl)CCN1C1CCN(C(=O)c2ccc(Cl)nc2N)CC1 | Human CXCR3 (N-delta 4) (Homo sapiens, UniProt P49682) | < 7.00
CC[C@H]1CN(c2nc(N)c(C(=O)NCCN(C)C)nc2Cl)CCN1C1CCN(C(=O)c2ccc(Cl)nc2N)CC1 | Human CXCR3 (N-delta 4) (Homo sapiens, UniProt P49682) | 7.00 to 7.60
CC[C@H]1CN(c2nc(N)c(C(=O)NN)nc2Cl)CCN1C1CCN(S(=O)(=O)c2c(C)noc2C)CC1 | Human CXCR3 (N-delta 4) (Homo sapiens, UniProt P49682) | < 7.00

For CC[C@H]1CN(c2nc(N)c(C(=O)NC3CCS(=O)(=O)C3)nc2Cl)CCN1C1CCN(C(=O)c2ccc(Cl)nc2N)CC1 (stereo partly shown) , what is its reported pIC50?
7.00 to 7.60

Which pIC50 value is on record for CC[C@H]1CN(c2nc(N)c(C(=O)NCC3CC3)nc2Cl)CCN1C1CCN(C(=O)c2ccc(Cl)nc2N)CC1 ?
> 7.60

// query pIC50 value for entry CC[C@H]1CN(c2nc(N)c(C(N)=O)nc2Cl)CCN1C1CCN(CC2COc3ccccc3O2)CC1 (stereo partly shown)
< 7.00

---

Target Under Test: Human CXCR3 (N-delta 4) (Homo sapiens, UniProt P49682)
Construct: CD8 leader (N); Flag tag; expressed in transfected cells; membranes prepared
Test Summary: Human CXCR3 (N-delta 4) scintillation proximity assay (SPA), [125I] IP-10 binding to Ba/F3-hCXCR3 membranes
Settings: IC50 rating; 25 pM [125I] IP-10, membranes of Ba/F3 cells expressing human CXCR3 (N-delta 4)
pIC50: −log10 of the molar value.
Measured Parameter: pIC50

In the examples that follow, each entry is paired with its recorded pIC50.
Compound | pIC50
CC[C@H]1CN(c2nc(N)c(C(N)=O)nc2Cl)CCN1C1CCN(C2OC(C(=O)N(C)C)c3cc(Cl)ccc32)CC1 (stereo partly shown) [compound 151] | 7.00 to 7.60
CC[C@H]1CN(c2nc(N)c(C(=O)NCCS(C)(=O)=O)nc2Cl)CCN1C1CCN(C(=O)c2ccc(Cl)nc2N)CC1 [compound 67] | 7.00 to 7.60

// lookup pIC50 for CC[C@H]1CN(c2nc(N)c(C(N)=O)nc2Cl)CCN1C1CCN(C(=O)c2ccc(Cl)nc2N)CC1 [compound 35]
> 7.60

Looking for the measured pIC50 of CC[C@H]1CN(c2nc(N)c(C(=O)NC3CCCC3O)nc2Cl)CCN1C1CCN(C(=O)c2ccc(Cl)nc2N)CC1 (stereo partly shown) [compound 27] , can you help?
> 7.60

Suppose we examine the compound CC[C@H]1CN(c2nc(N)c(C(=O)Nc3ccncc3)nc2Cl)CCN1C1CCN(C(=O)c2ccc(Cl)nc2N)CC1 [compound 130] ; what pIC50 value has been reported?
> 7.60

I'd like to know its pIC50. The compound in question is CC[C@H]1CN(c2nc(N)c(C(N)=O)nc2Cl)CCN1C1CCN(C(=O)c2cc(F)c(Cl)nc2N)CC1 [compound 41]
> 7.60

Consider the compound CC[C@H]1CN(c2ncc(C(N)=O)nc2C)CCN1C1CCN(C(=O)c2ccc(Cl)nc2N)CC1 [compound 129] and give its measured pIC50.
> 7.60
